Test system: Cavia porcellus
Assay: Antialzheimer activity in sc dosed guinea pig assessed as reduction of total amyloid beta level in brain after 3 hrs by DELFIA-based ELISA
Type: functional
Record form. Attribute: ED50. Fill in for each entry.
Answer format: numeric, mg/kg implied, no suffix.

Give Cavia porcellus ED50 for CCC[C@H](N[C@H]1CCc2cc(F)cc(F)c2C1)C(=O)Nc1cn(C(C)(C)CNCC(C)(C)C)cn1 [NIROGACESTAT]
2.3

Follow-up entry: CCC[C@H](N[C@H]1CCc2cc(F)cc(F)c2C1)C(=O)Nc1cn(C(C)(C)CNCC(F)(F)F)cn1
14.6

Same lookup for CCC[C@H](N[C@H]1CCc2cc(F)cc(F)c2C1)C(=O)Nc1cn(C(C)(C)CN2CCOCC2)cn1 , please.
2.9

Then CCC[C@H](N[C@H]1CCc2cc(F)cc(F)c2C1)C(=O)Nc1cn(C(C)(C)CN(C)C)cn1 ?
16.1

Next entry: CCC[C@H](N[C@H]1CCc2cc(F)cc(F)c2C1)C(=O)Nc1cn(C(C)(C)CN2CCCCC2)cn1
4.1

Now consider CCC[C@H](N[C@H]1CCc2cc(F)cc(F)c2C1)C(=O)Nc1cn(C(C)(C)CNC(C)C)cn1 .
41.2

How about CCC[C@H](N[C@H]1CCc2cc(F)cc(F)c2C1)C(=O)Nc1cn(C(C)(C)CN2CCCC2)cn1 ?
9.9
